Listed next: entries and their corresponding IC50.
Target: CRTH2 (Homo sapiens)
Construct: polymorphonuclear cells (0.5 ml; 10^6/ml cells) in PBS containing 0.9 mM CaCl2 and 0.5 mM MgCl2; endogenous in cells; host or cells: polymorphonuclear cells (eosinophils gated by flow cytometry)
Sequence (Q9Y5Y4 1-395): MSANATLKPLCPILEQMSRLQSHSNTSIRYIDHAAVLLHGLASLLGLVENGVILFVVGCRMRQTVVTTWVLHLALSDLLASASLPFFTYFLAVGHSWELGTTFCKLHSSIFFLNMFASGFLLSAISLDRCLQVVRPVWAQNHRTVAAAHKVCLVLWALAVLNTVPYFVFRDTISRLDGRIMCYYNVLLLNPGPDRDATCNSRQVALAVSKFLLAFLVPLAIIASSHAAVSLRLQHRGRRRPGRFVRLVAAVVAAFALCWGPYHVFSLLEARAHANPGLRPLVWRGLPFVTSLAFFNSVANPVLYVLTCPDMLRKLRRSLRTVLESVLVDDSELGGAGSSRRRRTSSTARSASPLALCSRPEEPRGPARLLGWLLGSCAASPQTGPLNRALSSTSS
Assay: DPBS CD11b Antagonist Assay
Type: cell-based
Conditions: polymorphonuclear cells in PBS, eosinophil CD11b expression, challenge with 15R-Methyl-PGD2 (10 nM)
Experimental: DPBS CD11b Antagonist Assay. The potential CRTH2 antagonist activity of certain compounds was tested using a CD11b expression assay using essentially the method described by Monneret et al. (J Pharmacol Exp Ther 304:349-55, 2003). […] The distribution of fluorescence intensities among 60,000 cells was measured by flow cytometry. Eosinophils were gated out on the basis of their granularity (high side scatter) and labeling with VLA-4 (PE fluorescence). […]
MEASURED ENDPOINT: IC50

> print(dat)
                                input.smiles    measurement
 1  Cc1c(Cc2ccccc2S(=O)(=O)N2CCCC2)c2c(n1CC(=O)O)CC(C)(C)CC2=O         < 5 nM
 2  Cc1c(Cc2ccc(S(=O)(=O)N(C)C)cc2)c2c(n1CC(=O)O)CCC(C)(C)C2         < 5 nM
 3  Cc1c(Cc2ccccc2S(=O)(=O)c2ccccc2)c2c(n1CC(=O)O)CCCC2         < 5 nM
 4  CCOC(=O)Cn1c(C)c(Cc2ccccc2S(=O)(=O)N2CCOCC2)c2c1CCC(C)(C)C2  100 to 500 nM
 5  Cc1c(Cc2ccccc2S(=O)(=O)N2CCCC2)c2c(n1CC(=O)O)CC(C)(C)C(C)(C)C2=O         < 5 nM
 6  Cc1c(Cc2ccc(S(=O)(=O)NC3CC3)cc2)c2c(n1CC(=O)O)CCC(C)(C)C2         < 5 nM
 7  Cc1c(Sc2ccc(S(=O)(=O)N3CCCC3)cc2)c2c(n1CC(=O)O)CC(C)(C)CC2=O  100 to 500 nM
 8  Cc1c(Cc2ccc(S(=O)(=O)N3CCOCC3)cc2)c2c(n1CC(=O)O)CC(C)(C)CC2=O       > 500 nM
 9  Cc1c(Cc2ccccc2S(=O)(=O)N2CCCC2)c2c(n1CC(=O)OCCN1CCOCC1)CC(C)(C)CC2=O         < 5 nM
10  Cc1c(Cc2ccccc2S(=O)(=O)N2CCOCC2)c2c(n1CC(=O)O)CCCCC2    5 to 100 nM
11  CCOC(=O)Cn1c(C)c(Sc2ccc(Br)cc2S(=O)(=O)N2CCCC2)c2c1CC(C)(C)CC2=O       > 500 nM
12  Cc1c(Cc2ccccc2S(=O)(=O)N2CCOCC2)c2c(n1CC(=O)O)CC(C)(C)CC2=O         < 5 nM
13  Cc1c(Cc2ccccc2S(=O)(=O)N2CCOCC2)c2c(n1CC(=O)OC(C)C)CC(C)(C)CC2=O       > 500 nM
14  CCOC(=O)Cn1c(C)c(Cc2ccccc2S(=O)(=O)c2ccccc2)c2c1CC(C)(C)CC2=O  100 to 500 nM
15  Cc1c(Cc2ccccc2S(=O)(=O)c2ccccc2)c2c(n1CC(=O)O)CC(C)(C)CC2=O         < 5 nM
16  Cc1c(Cc2ccccc2S(=O)(=O)N2CCCC2)c2c(n1CC(=O)O)CCCCC2    5 to 100 nM
